- Test protocol: log P by HPLC on reversed-phase column (C 18), EEC Directive 79/831 Annex V.A8
- Assay type: physicochemical
- Experimental context: reversed-phase HPLC column (C 18), 40° C., 0.1% aqueous formic acid and acetonitrile
Experimental readout: chromatographic logP
The answer should be a number; do not append a unit.

Q. Report chromatographic logP for "CC(C)c1ccccc1CN(C(=S)c1c(C(F)F)nn(C)c1F)C1CC1" please.
A. 4.36

These data points were gathered from patent US9439426B2.
